endpoint_label: boiling point (°C)
Report the figure in °C without appending any unit label.

[ask] For COC(=O)Cc1ccccc1 , what is its reported boiling point?
[reply] 216

* * *

Binary call on boiling point: YES from 200 °C upward, NO beneath that.

Some solved cases for reference:
- compound: "CC(C)CC(N)=O"
  answer_label: "YES"
- compound: "c1ccc2c(c1)Cc1ccccc1-2"
  answer_label: "YES"
- compound: "O=C(O)C(F)(F)C(F)(F)C(F)(F)C(F)(F)C(F)(F)C(F)(F)F"
  answer_label: "NO"
- compound: "CB(C)Cl"
  answer_label: "NO"
- compound: "O=C(c1ccccc1)C1CCC1"
  answer_label: "YES"
- compound: "NC1CCCC1"
  answer_label: "NO"
- compound: "BrCC(CBr)(CBr)CBr"
  answer_label: "YES"
- compound: "CC1CCCCC1(C)C (configuration not stated)"
  answer_label: "NO"
- compound: "CCCCCCCCCC#N"
  answer_label: "YES"
- compound: "Cc1ccccc1O"
  answer_label: "NO"

[ask] Determine whether measured boiling point meets or exceeds 200 °C for COc1ccccc1I
[reply] YES

[ask] Determine whether measured boiling point meets or exceeds 200 °C for O=C1OC(=O)c2c1ccc(Cl)c2Cl
[reply] YES
